- Tested on: ATP;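 also: ATP exposure 15 min at 22 °C before imaging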
- assay-notes: switch fluorescence ratio, 500 uM ATP over buffer (Cy3 cluster intensity, sum of 5 cycles each) (fold (ratio)); higher = stronger signal-on switching upon ATP binding; sequences stand for … in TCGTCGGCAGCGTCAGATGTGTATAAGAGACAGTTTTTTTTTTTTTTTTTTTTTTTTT…TC
- condition-description: aptamer strand: ATP DNA aptamer (quencher-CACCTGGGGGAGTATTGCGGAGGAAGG + anchor), 100 nM annealed; ATP concentration: 500 uM
For each of the sequences below, state its switch fluorescence ratio.

// query Under ATP: switch fluorescence ratio value of `CGGGGGGTTT` ?
// result 1.01

// query Write down the reported switch fluorescence ratio of `TAACCGCTTT` , test system: ATP.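 Also: ATP exposure 15 min at 22 °C before imaging.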
// result 1.55

// query Query the reported switch fluorescence ratio for ATP; item: `CCATTAGTAT`
// result 1.06

// query What reported switch fluorescence ratio corresponds to `GAGGCGGGGA` on ATP?
// result 1.01

// query Lookup: switch fluorescence ratio / ATP / `GGATGATGCA`
// result 1.03

// query Could you share what switch fluorescence ratio was measured for `TTCTGCTATC` , tested on ATP?;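 also: ATP exposure 15 min at 22 °C before imaging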
// result 1.79

// query Item `TTTGGGGCGT` with ATP - switch fluorescence ratio?
// result 1

// query Query the reported switch fluorescence ratio for ATP; item: `ATATAGGGGA`
// result 1.02

----------
- Tested on: ATP;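 also: ATP exposure 15 min at 22 °C before imaging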
- assay-notes: switch fluorescence ratio, 500 uM ATP over buffer (Cy3 cluster intensity, sum of 5 cycles each) (fold (ratio)); higher = stronger signal-on switching upon ATP binding; sequences stand for … in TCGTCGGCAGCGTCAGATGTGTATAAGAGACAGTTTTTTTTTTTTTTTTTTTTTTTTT…TC
- condition-description: aptamer strand: ATP DNA aptamer (quencher-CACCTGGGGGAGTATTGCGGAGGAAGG + anchor), 100 nM annealed; ATP concentration: 500 uM
property-measured: switch fluorescence ratio
// keep it numeric: no unit symbol after the value

// query ATP / switch fluorescence ratio / `GAATTCAGTG` : value?
// result 0.995

// query Hi! What's the reported switch fluorescence ratio for `TTTTTATATG` on ATP?
// result 0.999

// query Please provide the recorded switch fluorescence ratio for `TTTCGGGGGT` , tested on ATP.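 Also: ATP exposure 15 min at 22 °C before imaging.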
// result 1.07

// query Identify the measured switch fluorescence ratio of `TGGGTTTGCG` for ATP.
// result 0.982

// query Please state recorded switch fluorescence ratio (tested on ATP) of `CTCCGTGGGG`;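 also: ATP exposure 15 min at 22 °C before imaging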
// result 1.47

// query Param readout= switch fluorescence ratio; system= ATP; entry= `TTAACTAGGG` ; returns value.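 Also: ATP exposure 15 min at 22 °C before imaging.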
// result 0.974

// query Value wanted: switch fluorescence ratio (ATP) of entry `ATATGGGAAA`
// result 0.978

----------
Record form. Attribute: switch fluorescence ratio. Fill in for each entry.
- Test system: ATP;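 also: ATP exposure 15 min at 22 °C before imaging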
- assay-notes: switch fluorescence ratio, 500 uM ATP over buffer (Cy3 cluster intensity, sum of 5 cycles each) (fold (ratio)); higher = stronger signal-on switching upon ATP binding; sequences stand for … in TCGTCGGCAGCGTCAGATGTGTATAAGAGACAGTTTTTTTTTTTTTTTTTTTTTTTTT…TC
- condition-description: aptamer strand: ATP DNA aptamer (quencher-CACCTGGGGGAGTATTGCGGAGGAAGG + anchor), 100 nM annealed; ATP concentration: 500 uM

// query Record request: switch fluorescence ratio value, item `TGAAATTACG`
// result 1.03

// query Which switch fluorescence ratio reading was recorded for the sequence `TTGTGGATTA` ?
// result 1

// query Which switch fluorescence ratio reading was recorded for the sequence `CACATGGTCG` ?
// result 0.997

// query Given `TTTTACGGGT` , state its recorded switch fluorescence ratio.
// result 1.02

// query Form field: reported switch fluorescence ratio of `CAAGTCTGGG`
// result 0.988

// query Please report the recorded switch fluorescence ratio for `GAGGGCGGGG` .
// result 1.05

// query // returns reported switch fluorescence ratio for input `TCGTACTTTT`
// result 0.989

// query // lookup switch fluorescence ratio for `TGGGGTTGGT`
// result 0.993

// query I have this sequence here, `AAGCCGTCGG` , and I need its recorded switch fluorescence ratio.
// result 1.02

// query Any idea what its switch fluorescence ratio is? The sequence is `GCATGGCGGC`
// result 1.01

// query Which measured switch fluorescence ratio value corresponds to `GCGGCACGTG` ?
// result 0.97

// query // switch fluorescence ratio lookup, key: `GACGAGGG`
// result 1.03

// query Look up switch fluorescence ratio: `GACCTGTAAT`
// result 1.02

// query Please look up its switch fluorescence ratio: `AAGGGCTAGA`
// result 1

// query Entry `CAGGATCATC` has what switch fluorescence ratio?
// result 0.988

// query For the sequence shown here, `GAATGGGGCT` , give the reported switch fluorescence ratio.
// result 0.987

// query If you can, please state the reported switch fluorescence ratio value of `ATTAATAGTT` .
// result 0.997

// query Query: switch fluorescence ratio; subject: `TATATGATGC`
// result 0.984

// query Tell me the measured switch fluorescence ratio of `ATACGGACGG` , please.
// result 1.4

// query // returns reported switch fluorescence ratio for input `TTTGAGTGCG`
// result 0.973

// query For `CTAGTCGCGC` , what is its reported switch fluorescence ratio?
// result 1

// query Fill in the blank: the reported switch fluorescence ratio of `AGAGGGGTTA` is ____.
// result 1.01

// query # query: switch fluorescence ratio of entry `TAAGCGGGG`
// result 1

// query So what does the record say about switch fluorescence ratio for `TTTTTTAGTT` ?
// result 0.992

// query Recorded switch fluorescence ratio of `TGGAGGAGGG` , please.
// result 1

// query Entry `TCGCAGGCCT` : reported switch fluorescence ratio = ?
// result 1.03

// query Data request, read-out switch fluorescence ratio, for `AGAATTTTCC`
// result 1.08

// query Quick check: switch fluorescence ratio of `TGCTGTTGTA` ?
// result 0.998

// query What measured switch fluorescence ratio goes with `TGATCGTGAG` ?
// result 1.02

// query Entry under review: `GATTCAGGTA` . Reported switch fluorescence ratio?
// result 1.01

// query Can you share its switch fluorescence ratio? I mean this sequence: `CGCCTGACAC`
// result 1.26

// query What switch fluorescence ratio value was documented for this sequence, `GTGCTAGTCT` ?
// result 0.979

// query Looking for the measured switch fluorescence ratio of `TTTTTTAGC` , can you help?
// result 1.02

// query Form field: reported switch fluorescence ratio of `CTTAGATAAA`
// result 0.985
